biological target: B2 bradykinin receptor (Rattus norvegicus); assay: In vitro inhibitory activity against Bradykinin receptor B2 in isolated rat ileum at 0.1 uM; format: tissue-based
Readout Label: inhibition (%)
# unit: % | format: bare number

Task: Which inhibition value is on record for O=C(O)COC(CN1CCN(C(c2ccccc2)c2ccc(Cl)cc2)CC1)c1cccc2ccccc12 (centres undefined) ?
Result: 26.6

Task: Which inhibition value is on record for CC(CN1CCN(C(c2ccccc2)c2ccc(Cl)cc2)CC1)(OCC(=O)O)c1ccccc1 (centres undefined) ?
Result: 45.6

Task: Which inhibition value is on record for O=C(O)C(OCCN1CCN(C(c2ccccc2)c2ccc(Cl)cc2)CC1)c1ccccc1 (centres undefined) ?
Result: 9.1

Task: Which inhibition value is on record for O=C(O)COCCN1CCN(C(c2ccccc2)c2ccc(Cl)cc2)CC1 (centres undefined) ?
Result: 27

Task: Which inhibition value is on record for COc1ccc(COCCN2CCN(C(c3ccccc3)c3ccc(Cl)cc3)CC2)cc1 (centres undefined) ?
Result: 8.7

Task: Which inhibition value is on record for Clc1ccc(C(c2ccccc2)N2CCN(CCCOCc3cccc4ccccc34)CC2)cc1 (centres undefined) ?
Result: 11.9

Task: Which inhibition value is on record for CCC(OCCN1CCN(C(c2ccccc2)c2ccc(Cl)cc2)CC1)C(=O)O (centres undefined) ?
Result: 12.6

Task: Which inhibition value is on record for Clc1ccc(C(c2ccccc2)N2CCN(CCOCc3cccc4ccccc34)CC2)cc1 (centres undefined) ?
Result: 17

Task: Which inhibition value is on record for O=C(O)COC(CCN1CCN(C(c2ccccc2)c2ccc(Cl)cc2)CC1)c1ccccc1 (centres undefined) ?
Result: 25.4

Task: Which inhibition value is on record for Clc1ccc(C(c2ccccc2)N2CCN(CCCOCc3ccc4ccccc4c3)CC2)cc1 (centres undefined) ?
Result: 17.7

Task: Which inhibition value is on record for O=C(O)Cc1ccc(COCCN2CCN(C(c3ccccc3)c3ccc(Cl)cc3)CC2)cc1 (centres undefined) ?
Result: 36.6

Task: Which inhibition value is on record for CC(C)(COCC(=O)O)CN1CCN(C(c2ccccc2)c2ccc(Cl)cc2)CC1 (centres undefined) ?
Result: 33.4

Task: Which inhibition value is on record for CC(COCC(=O)O)CN1CCN(C(c2ccccc2)c2ccc(Cl)cc2)CC1 (centres undefined) ?
Result: 25

Task: Which inhibition value is on record for CC(C)c1ccc(COCCN2CCN(C(c3ccccc3)c3ccc(Cl)cc3)CC2)cc1 (centres undefined) ?
Result: 5

* * *

Task for the reader: assign each of the following compounds its reported inhibition.
biological target: Histamine H1 receptor (Cavia porcellus); test: In vitro inhibitory activity against histamine H1 receptor in guinea-pig ileum at 0.1 uM; format: tissue-based
# unit: % | format: bare number

Task: Which inhibition value is on record for CC(COCC(=O)O)CN1CCN(C(c2ccccc2)c2ccc(Cl)cc2)CC1 (configuration not stated) ?
Result: 14.3

Task: Which inhibition value is on record for O=C(O)C(OCCN1CCN(C(c2ccccc2)c2ccc(Cl)cc2)CC1)c1ccccc1 (configuration not stated) ?
Result: 43.7

Task: Which inhibition value is on record for CC(C)c1ccc(COCCN2CCN(C(c3ccccc3)c3ccc(Cl)cc3)CC2)cc1 (configuration not stated) ?
Result: 77.5

Task: Which inhibition value is on record for O=C(O)COC(CN1CCN(C(c2ccccc2)c2ccc(Cl)cc2)CC1)c1cccc2ccccc12 (configuration not stated) ?
Result: 57

Task: Which inhibition value is on record for Clc1ccc(C(c2ccccc2)N2CCN(CCCOCc3cccc4ccccc34)CC2)cc1 (configuration not stated) ?
Result: 63

Task: Which inhibition value is on record for Clc1ccc(C(c2ccccc2)N2CCN(CCCOCc3ccc4ccccc4c3)CC2)cc1 (configuration not stated) ?
Result: 26.4

Task: Which inhibition value is on record for Clc1ccc(C(c2ccccc2)N2CCN(CCOCc3ccc4ccccc4c3)CC2)cc1 (configuration not stated) ?
Result: 10
